target: Vascular endothelial growth factor receptor 3 (Homo sapiens); conditions: at 0.1 µM
Description: GSK_PKIS: FLT4 mean inhibition at 0.1 uM [Nanosyn]
Listed here: items and their measured inhibition.
measuredMetric: inhibition (%)

{"compound": "O=C1Nc2ccc(C(=O)c3ccco3)cc2C1=Cc1cc(Cl)c(O)c(Cl)c1", "numericReadout": 6.18}
{"compound": "CC1=C(C(=O)Nc2ccc3[nH]ncc3c2)C(c2ccc(F)cc2)NC(=O)N1 (stereo not given)", "numericReadout": 18.2}
{"compound": "CCn1c(-c2nonc2N)nc2cncc(C(=O)N3CCNCC3)c21", "numericReadout": 5.86}
{"compound": "COc1ccccc1Nc1ncc(-c2ccccc2)o1", "numericReadout": 3.38}
{"compound": "NC(=O)c1ccc(-c2nc(-c3ccccn3)c(-c3ccc4c(c3)OCO4)[nH]2)cc1", "numericReadout": 0.44}
{"compound": "CCn1c(-c2nonc2N)nc2c(N3CCCC3)nccc21", "numericReadout": 2.79}
{"compound": "Cn1cc(C=C2C(=O)Nc3cccnc32)c2ccccc21", "numericReadout": 4.88}
{"compound": "CN1CCC(C(=O)Nc2n[nH]c3nnc(-c4ccccc4)cc23)CC1", "numericReadout": 2.1}
{"compound": "CCCN1CCC(Oc2cc(Nc3nc(Nc4cccc(F)c4C(N)=O)c4cc[nH]c4n3)c(OC)cc2Cl)CC1", "numericReadout": 12.3}
{"compound": "CS(=O)(=O)CCN(CC#N)Cc1ccc(-c2ccc3ncnc(Nc4ccc(OCc5cccc(F)c5)c(Cl)c4)c3c2)o1", "numericReadout": -3.53}
